// values below are reported TGI
# Tested on: MDA-MB-435
# Assay overview: NCI tumour cell line growth inhibition, 48 h

In: Query the reported TGI for MDA-MB-435; item: CCCCCCCCCCCCCCCCCCNc1nc(=O)n(C2CC(O)C(COP(=O)(O)O)O2)cc1F (stereo unspecified)
Out: > 100 µM

====

# Tested on: SK-MEL-28 melanoma
# Assay overview: NCI tumour cell line growth inhibition, 48 h
Listed here are molecules together with their documented TGI.

In: Entry under review: "C=CC[n+]1c2ccccc2n2cc([N+](=O)[O-])ccc21" . Reported TGI?
Out: 89.9 µM

In: Fill blank: measured TGI of the molecule "CC(=O)Nc1ccc(OC/C(N)=N/NC(=O)c2ccncc2)cc1" is ____.
Out: > 100 µM

In: Quick one: TGI of "CC(C)(C)CC(C)(C)c1cc(O)c(O)c(CN2CCCCC2)c1" ?
Out: 32.8 µM

In: Requested field: TGI. Item: "Cn1c(-c2ccc(/C=N/NC(=S)N/N=C/c3ccc(-c4c[n+]5ccsc5n4C)cc3)cc2)c[n+]2ccsc12"
Out: > 100 µM

In: TGI lookup needed for COC(=O)CC(NC(=O)OCc1ccccc1)C(C(=O)OCc1ccccc1)C(C)(OC)OC (stereo unspecified) , thanks.
Out: > 100 µM

Shift focus to the following entry.
In: GET /values?readout=TGI&item= "CC(=O)[O-].[Mn+3].[O-]c1ccccc1C=NCCNCCN=Cc1ccccc1[O-]"
Out: > 100 µM
